Tested on: Delta-type opioid receptor
experiment.summary: Receptor selectivity index is the ratio of the apparent KI at delta opioid receptor over the apparent KI at the highest affinity site
Below is a list of entries, each paired with its recorded Ratio value.

| molecule | measured.target | Ratio |
| --- | --- | --- |
| CC(C)C[C@H](NC(=O)[C@H](Cc1ccccc1)NC(=O)CNC(=O)[C@@H](Cc1c[nH]c2ccccc12)NC(=O)[C@@H](N)Cc1ccc(O)cc1)C(=O)N[C@@H](CCCN=C(N)N)C(=O)N[C@@H](CCCN=C(N)N)C(=O)N[C@H](Cc1c[nH]c2ccccc12)C(=O)N[C@@H](CCCN=C(N)N)C(=O)N1CCC[C@@H]1C(=O)N[C@@H](CCCCN)C(=O)O | Delta-type opioid receptor | 5.5 |
| CC(C)C[C@H](NC(=O)[C@@H](Cc1c[nH]c2ccccc12)NC(=O)CNC(=O)[C@@H](Cc1c[nH]c2ccccc12)NC(=O)[C@@H](N)Cc1ccc(O)cc1)C(=O)N[C@@H](CCCN=C(N)N)C(=O)N[C@@H](CCCN=C(N)N)C(=O)N[C@H](Cc1c[nH]c2ccccc12)C(=O)N[C@@H](CCCN=C(N)N)C(=O)N1CCC[C@@H]1C(=O)N[C@@H](CCCCN)C(=O)O | Delta-type opioid receptor | 5.6 |
| NCCCC[C@H](NC(=O)[C@H]1CCCN1C(=O)[C@H](CCCN=C(N)N)NC(=O)[C@@H](Cc1c[nH]c2ccccc12)NC(=O)[C@H](CCCN=C(N)N)NC(=O)[C@H](CCCN=C(N)N)NC(=O)[C@@H](Cc1c[nH]c2ccccc12)NC(=O)[C@H](Cc1ccccc1)NC(=O)CNC(=O)CNC(=O)[C@@H](N)Cc1ccc(O)cc1)C(=O)O | Delta-type opioid receptor | 15 |

====

measured.target: Delta-type opioid receptor (Rattus norvegicus) (UniProt P33533)
Sequence (P33533 whole entry): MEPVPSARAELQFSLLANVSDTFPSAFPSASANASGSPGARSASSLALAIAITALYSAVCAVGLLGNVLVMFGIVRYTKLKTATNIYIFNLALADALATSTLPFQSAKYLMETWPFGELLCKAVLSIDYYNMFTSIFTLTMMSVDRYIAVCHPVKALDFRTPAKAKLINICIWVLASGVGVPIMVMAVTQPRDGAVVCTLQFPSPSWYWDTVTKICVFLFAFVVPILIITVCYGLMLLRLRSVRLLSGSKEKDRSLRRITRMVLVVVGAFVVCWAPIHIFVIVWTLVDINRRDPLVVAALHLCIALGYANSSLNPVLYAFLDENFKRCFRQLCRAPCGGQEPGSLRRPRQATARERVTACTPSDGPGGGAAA
experiment.summary: Hill coefficient value was measured against delta sites in rat brain homogenates
Format: tissue-based

| molecule | Hill coefficient |
| --- | --- |
| CC(C)C[C@H](NC(=O)[C@H](Cc1ccccc1)NC(=O)CNC(=O)CNC(=O)[C@@H](N)Cc1ccc(O)cc1)C(=O)N[C@@H](CCCN=C(N)N)C(=O)N[C@@H](CCCN=C(N)N)C(=O)N[C@H](Cc1c[nH]c2ccccc12)C(=O)N[C@@H](CCCN=C(N)N)C(=O)N1CCC[C@@H]1C(=O)N[C@@H](CCCCN)C(=O)O | 0.98 |
| CC(C)C[C@H](NC(=O)[C@@H](Cc1c[nH]c2ccccc12)NC(=O)CNC(=O)CNC(=O)[C@@H](N)Cc1ccc(O)cc1)C(=O)N[C@@H](CCCN=C(N)N)C(=O)N[C@@H](CCCN=C(N)N)C(=O)N[C@H](Cc1c[nH]c2ccccc12)C(=O)N[C@@H](CCCN=C(N)N)C(=O)N1CCC[C@@H]1C(=O)N[C@@H](CCCCN)C(=O)O | 0.92 |
| NCCCC[C@H](NC(=O)[C@H]1CCCN1C(=O)[C@H](CCCN=C(N)N)NC(=O)[C@@H](Cc1c[nH]c2ccccc12)NC(=O)[C@H](CCCN=C(N)N)NC(=O)[C@H](CCCN=C(N)N)NC(=O)[C@@H](Cc1c[nH]c2ccccc12)NC(=O)[C@H](Cc1ccccc1)NC(=O)CNC(=O)CNC(=O)[C@@H](N)Cc1ccc(O)cc1)C(=O)O | 0.9 |
